Catalogue of IC50 readings, one per entry.
Molecular target: human C1s protein (Homo sapiens, UniProt P09871)
Construct: A104
Sequence (P09871 16-688): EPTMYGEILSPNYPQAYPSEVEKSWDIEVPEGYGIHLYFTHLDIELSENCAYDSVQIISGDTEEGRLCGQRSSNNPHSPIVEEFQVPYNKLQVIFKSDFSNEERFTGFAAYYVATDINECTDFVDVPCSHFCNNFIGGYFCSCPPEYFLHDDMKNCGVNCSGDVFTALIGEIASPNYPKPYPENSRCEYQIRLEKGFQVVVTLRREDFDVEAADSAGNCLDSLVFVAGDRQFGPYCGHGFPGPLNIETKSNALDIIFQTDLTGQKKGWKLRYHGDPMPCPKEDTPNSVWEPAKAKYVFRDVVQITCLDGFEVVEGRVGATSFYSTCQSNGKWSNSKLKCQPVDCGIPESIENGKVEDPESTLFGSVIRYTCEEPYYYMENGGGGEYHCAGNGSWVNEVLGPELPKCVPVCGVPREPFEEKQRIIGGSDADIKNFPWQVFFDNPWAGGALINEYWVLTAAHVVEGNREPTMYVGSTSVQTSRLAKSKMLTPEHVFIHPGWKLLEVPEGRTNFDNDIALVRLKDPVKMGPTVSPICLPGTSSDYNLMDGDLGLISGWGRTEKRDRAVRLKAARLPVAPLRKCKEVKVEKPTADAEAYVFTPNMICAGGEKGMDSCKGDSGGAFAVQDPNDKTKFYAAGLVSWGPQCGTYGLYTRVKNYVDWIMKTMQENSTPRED
Assay: C1s enzymatic assay (hydrolysis of YLGR-Rh110-dPro)
Assay type: biochemical
Conditions: substrate YLGR-Rh110-dPro 20 μM, 15 min pre-incubation, 60 min RT, fluorescence, read-out: hC1s pIC50 (converted)
Counter-ions that a name gives are not always drawn.
measure: IC50 (nM)

{"compound": "COc1ccc(B(O)O)c(F)c1-c1ccc2c(N)nnc(C)c2c1 [Example 34, Formic Acid Salt]", "display unit": "nM", "numeric readout": 1.02}
{"compound": "Nc1cnnc2cc(-c3cc(B(O)O)ccc3OCC3CCCO3)ccc12 (centres unmarked)", "display unit": "nM", "numeric readout": 0.575}
{"compound": "Cc1nnc(N)c2ccc(-c3cc(P(C)(C)=O)cc(B(O)O)c3F)cc12 [Example 47, Formic Acid Salt]", "display unit": "nM", "numeric readout": 75.9}
{"compound": "Nc1nncc2cc(-c3cc(B(O)O)ccc3NC(=O)c3ccccc3Cl)ccc12 [Example 18, Formic Acid Salt]", "display unit": "nM", "numeric readout": 5.5}
{"compound": "Cc1nnc(N)c2ccc(-c3cnc(C(F)(F)F)c(B(O)O)c3)cc12", "display unit": "nM", "numeric readout": 2.95}
{"compound": "Nc1cnnc2cc(-c3cc(B(O)O)ccc3OC3CC(F)(F)C3)ccc12 [Example 142, Formic Acid Salt]", "display unit": "nM", "numeric readout": 1.17}
{"compound": "COc1ccc(B(O)O)cc1-c1cc(C)c2c(N)cnnc2c1", "display unit": "nM", "numeric readout": 17}
{"compound": "Nc1nncc2cc(-c3cccc(B(O)O)c3)ccc12", "display unit": "nM", "numeric readout": 1.17}

Numbers sourced from patent US12509474B2.
